Recorded log10 of IC50 values for a group of compounds are listed next.
system: MCF-7; assay: In vitro antiproliferative activity, SRB assay, MCF-7; assay type: cell-based, human; details: Homo sapiens, MCF7, 72 h, human breast adenocarcinoma, 72 h, SRB, mean ± SD
Values below are the log10 of the recorded IC50, with nM as the unit.

CCCC(=O)N[C@H]1CCc2cc(OC)c(OC)c(OC)c2-c2ccc(NC)c(=O)cc21 ... 1.15

So what does the record say about log10 of IC50 for CNc1ccc2c(cc1=O)[C@@H](NC(=O)c1ccccc1Cl)CCc1cc(OC)c(OC)c(OC)c1-2 ?
0.96

----------
test system: MCF-7; assay: In vitro antiproliferative activity, SRB assay, MCF-7; format: cell-based, human; conditions: Homo sapiens, MCF7, 72 h, human breast adenocarcinoma, 72 h, SRB, mean ± SD
assay-metric: pIC50
Note on units: pIC50 is unitless, being -log10 of a concentration expressed in mol/L.

So what does the record say about pIC50 for CCC(=O)NC1CCc2cc(OC)c(OC)c(OC)c2-c2ccc(NC)c(=O)cc21 (stereo not drawn) ?
7.84

So what does the record say about pIC50 for CNc1ccc2c(cc1=O)[C@@H](NC(=O)c1ccncc1)CCc1cc(OC)c(OC)c(OC)c1-2 ?
7.89

So what does the record say about pIC50 for CNc1ccc2c(cc1=O)[C@@H](NC(=O)c1cccnc1)CCc1cc(OC)c(OC)c(OC)c1-2 ?
7.89

So what does the record say about pIC50 for CCCCC(=O)NC1CCc2cc(OC)c(OC)c(OC)c2-c2ccc(NC)c(=O)cc21 (stereo not drawn) ?
7.80

So what does the record say about pIC50 for CNc1ccc2c(cc1=O)C(NC(=O)CCl)CCc1cc(OC)c(OC)c(OC)c1-2 (stereo not drawn) ?
8.04

----------
tested on: A549; assay: In vitro antiproliferative activity, SRB assay, A549; assay type: cell-based, human; conditions: human lung adenocarcinoma, 72 h, SRB, mean ± SD
assay-metric: pIC50
Note on units: pIC50 is unitless, being -log10 of a concentration expressed in mol/L.

Use the examples below as a reference point.
CNc1ccc2c(cc1=O)C(NS(=O)(=O)N(C)C)CCc1cc(OC)c(OC)c(OC)c1-2 (stereo not shown) ... 7.97
N.N.[Cl][Pt][Cl] [Cisplatin, reference compound] ... 5.24
CNc1ccc2c(cc1=O)C(NC(=O)CCC(F)(F)F)CCc1cc(OC)c(OC)c(OC)c1-2 (stereo not shown) ... 7.84

# input for lookup
So what does the record say about pIC50 for CNc1ccc2c(cc1=O)[C@@H](N)CCc1cc(OC)c(OC)c(OC)c1-2 ?
7.77

----------
tested on: LoVo/DX; assay: cells; assay type: cell-based, human; conditions: RI = (IC50 for LoVo/DX)/(IC50 for LoVo)
assay-metric: RI (resistance index)
Answer as a number with no unit attached.

Use the examples below as a reference point.
CNc1ccc2c(cc1=O)[C@@H](NC(=O)c1cccc(F)c1)CCc1cc(OC)c(OC)c(OC)c1-2 [Compound 14] ... 12.0
CNc1ccc2c(cc1=O)[C@@H](NC(=O)c1ccncc1)CCc1cc(OC)c(OC)c(OC)c1-2 [Compound 16] ... 87.4
CNc1ccc2c(cc1=O)[C@@H](NS(=O)(=O)c1ccc(C(F)(F)F)cc1)CCc1cc(OC)c(OC)c(OC)c1-2 [Compound 21] ... 83.3
CNc1ccc2c(cc1=O)[C@@H](N)CCc1cc(OC)c(OC)c(OC)c1-2 [Compound 3] ... 9.2

So what does the record say about RI (resistance index) for CNc1ccc2c(cc1=O)[C@@H](NC(=O)c1ccccc1Cl)CCc1cc(OC)c(OC)c(OC)c1-2 [Compound 13] ?
14.0

So what does the record say about RI (resistance index) for CCCCC(=O)NC1CCc2cc(OC)c(OC)c(OC)c2-c2ccc(NC)c(=O)cc21 (stereo not drawn) [Compound 6] ?
15.0

So what does the record say about RI (resistance index) for CNc1ccc2c(cc1=O)C(NS(=O)(=O)N(C)C)CCc1cc(OC)c(OC)c(OC)c1-2 (stereo not drawn) [Compound 18] ?
57.8

----------
System: MCF-7
Experiment: In vitro antiproliferative activity, SRB assay, MCF-7
Type: cell-based, human
Settings: Homo sapiens, MCF7, 72 h, human breast adenocarcinoma, 72 h, SRB, mean ± SD
Source text: The A549 cell line was purchased from the European Collection of Authenticated Cell Cultures (ECACC, Salisbury, UK). The MCF-7, LoVo and LoVo/DX cell lines was purchased from American Type Culture Collection (ATCC, Manassas, VA, USA). All the cell lines are maintained in the Institute of Immunology and Experimental Therapy (IIET), Wroclaw, Poland. […]
assay-metric: pIC50
Note on units: pIC50 is unitless, being -log10 of a concentration expressed in mol/L.

Use the examples below as a reference point.
CNc1ccc2c(cc1=O)C(NC(=O)C(C)C)CCc1cc(OC)c(OC)c(OC)c1-2 (stereo not shown) [Compound 8] ... 7.73
CCCCCCCCCCCCCCCC(=O)N[C@H]1CCc2cc(OC)c(OC)c(OC)c2-c2ccc(NC)c(=O)cc21 [Compound 7] ... 6.33

# input for lookup
So what does the record say about pIC50 for CNc1ccc2c(cc1=O)C(NS(N)(=O)=O)CCc1cc(OC)c(OC)c(OC)c1-2 (stereo not shown) [Compound 17] ?
7.99

----------
Test system: MCF-7
Experiment: In vitro antiproliferative activity, SRB assay, MCF-7
Assay type: cell-based, human
Details: Homo sapiens, MCF7, 72 h, human breast adenocarcinoma, 72 h, SRB, mean ± SD
From the text: The A549 cell line was purchased from the European Collection of Authenticated Cell Cultures (ECACC, Salisbury, UK). The MCF-7, LoVo and LoVo/DX cell lines was purchased from American Type Culture Collection (ATCC, Manassas, VA, USA). All the cell lines are maintained in the Institute of Immunology and Experimental Therapy (IIET), Wroclaw, Poland. […]
assay-metric: log10 of IC50 (log10 of the value in nM)
Values below are the log10 of the recorded IC50, with nM as the unit.

Kindly state the measured log10 of IC50 obtained for CNc1ccc2c(cc1=O)C(NS(=O)(=O)CCN1CCOCC1)CCc1cc(OC)c(OC)c(OC)c1-2 (stereo not shown) with MCF-7.
2.18

Kindly state the measured log10 of IC50 obtained for CNc1ccc2c(cc1=O)[C@@H](NS(=O)(=O)c1ccc(C(F)(F)F)cc1)CCc1cc(OC)c(OC)c(OC)c1-2 with MCF-7.
2.13

Kindly state the measured log10 of IC50 obtained for CNc1ccc2c(cc1=O)[C@@H](NC(=O)c1ccccc1)CCc1cc(OC)c(OC)c(OC)c1-2 with MCF-7.
1.11

Kindly state the measured log10 of IC50 obtained for CNc1ccc2c(cc1=O)[C@@H](NC(=O)c1cccc(F)c1)CCc1cc(OC)c(OC)c(OC)c1-2 with MCF-7.
1.10

Kindly state the measured log10 of IC50 obtained for CNc1ccc2c(cc1=O)[C@@H](NC(=O)C(Cl)Cl)CCc1cc(OC)c(OC)c(OC)c1-2 with MCF-7.
0.93

Kindly state the measured log10 of IC50 obtained for CNc1ccc2c(cc1=O)[C@@H](NC(C)=O)CCc1cc(OC)c(OC)c(OC)c1-2 with MCF-7.
0.93

Kindly state the measured log10 of IC50 obtained for C=CS(=O)(=O)NC1CCc2cc(OC)c(OC)c(OC)c2-c2ccc(NC)c(=O)cc21 (stereo not shown) with MCF-7.
1.11

Kindly state the measured log10 of IC50 obtained for COc1cccc2c1C(=O)c1c(O)c3c(c(O)c1C2=O)C[C@@](O)(C(=O)CO)C[C@@H]3O[C@H]1C[C@H](N)[C@H](O)[C@H](C)O1 [Doxorubicin, reference compound] with MCF-7.
2.31

----------
tested on: LoVo/DX; assay: cells; format: cell-based, human; details: RI = (IC50 for LoVo/DX)/(IC50 for LoVo)
assay-metric: RI (resistance index)
Answer as a number with no unit attached.

Use the examples below as a reference point.
CNc1ccc2c(cc1=O)[C@@H](NC(=O)c1cccnc1)CCc1cc(OC)c(OC)c(OC)c1-2 ... 76.8
COc1cccc2c1C(=O)c1c(O)c3c(c(O)c1C2=O)C[C@@](O)(C(=O)CO)C[C@@H]3O[C@H]1C[C@H](N)[C@H](O)[C@H](C)O1 [Doxorubicin, reference compound] ... 87.9
CNc1ccc2c(cc1=O)C(NC(=O)CCl)CCc1cc(OC)c(OC)c(OC)c1-2 (centres unmarked) ... 35.2
CNc1ccc2c(cc1=O)C(NS(N)(=O)=O)CCc1cc(OC)c(OC)c(OC)c1-2 (centres unmarked) ... 306.0
CNc1ccc2c(cc1=O)C(NC(=O)C(C)C)CCc1cc(OC)c(OC)c(OC)c1-2 (centres unmarked) ... 24.3

So what does the record say about RI (resistance index) for N.N.[Cl][Pt][Cl] [Cisplatin, reference compound] ?
1.2

So what does the record say about RI (resistance index) for CCCCCCCCCCCCCCCC(=O)N[C@H]1CCc2cc(OC)c(OC)c(OC)c2-c2ccc(NC)c(=O)cc21 ?
39.0

So what does the record say about RI (resistance index) for CNc1ccc2c(cc1=O)[C@@H](NC(C)=O)CCc1cc(OC)c(OC)c(OC)c1-2 ?
63.0
